List of GI50 values.
- System: T-47D breast
- Test Summary: NCI tumour cell line growth inhibition, 48 h
Assay Endpoint: GI50

>>> val("CSc1cc(N=Nc2nc3ccccc3s2)c2ccccc2c1O")
"3.64 µM"
>>> val("COc1cc(/C=C/c2cc(/C=C/c3ccc(O)c(OC)c3)n(-c3ccccc3)n2)ccc1O")
"0.645 µM"
>>> val("CCNCCNc1cc(-c2ccc(C(=O)OC)cc2)c(C#N)c2nc3ccccc3n12")
"2.16 µM"
>>> val("Cc1ccc(S(=O)(=O)N(CCOc2ccc(/C(N)=N/Cl)cc2)CCOc2ccc(/C(N)=N\\Cl)cc2)cc1")
"15.3 µM"
>>> val("COc1cccc(/C=N/NC(=O)c2ccccc2Nc2ccnc(C(F)(F)F)c2)c1O")
"0.498 µM"

----------
- Tested on: UACC-62 melanoma
- Test Summary: NCI tumour cell line growth inhibition, 48 h; in the data active = GI50 below about 0.43 µM; inactive = the rest
Outcome codes: label 1 (active), label 0 (inactive)

>>> answer_label("CCNCCNc1cc(-c2ccc(C(=O)OC)cc2)c(C#N)c2nc3ccccc3n12")
"label 0"
>>> answer_label("O=C(NCCOCCOCCNc1cccc2c1C(=O)N(C1CCCNC1=O)C2=O)c1cc2c(o1)C(=O)c1ccccc1C2=O (stereo unspecified)")
"label 0"
>>> answer_label("COc1ccc(C2=NN(C(=O)c3cc(OC)c(OC)c(OC)c3)C(c3ccc(C#N)cc3)C2)cc1OC (stereo unspecified)")
"label 0"
>>> answer_label("Cc1ccc(S(=O)(=O)N(CCOc2ccc(/C(N)=N/Cl)cc2)CCOc2ccc(/C(N)=N\\Cl)cc2)cc1")
"label 0"
>>> answer_label("O=C1c2c(c3c4ccccc4n(CCCCCCBr)c3c3[nH]c4ccccc4c23)C(=O)N1O")
"label 0"
>>> answer_label("COc1cccc(/C=N/NC(=O)c2ccccc2Nc2ccnc(C(F)(F)F)c2)c1O")
"label 1"

----------
- System: SK-MEL-28 melanoma
- Test Summary: NCI tumour cell line growth inhibition, 48 h
Assay Endpoint: TGI

>>> val("COc1ccc(C2CC(c3c(O)ccc4ccccc34)=NN2c2ccc([N+](=O)[O-])cc2[N+](=O)[O-])cc1OC (centres undefined)")
"> 100 µM"
>>> val("CCN1CC2=C(NC(=S)NC2c2ccc(Cl)cc2)/C(=C/c2ccc(Cl)cc2)C1 (centres undefined)")
"> 100 µM"
>>> val("Cc1nc2c(sc(=S)n2-c2ccccc2)c2nc3ncccc3n12")
"> 100 µM"
>>> val("O=C(CCCCCCCCC(=O)NN1C(=O)/C(=C\\c2ccc(O)c(O)c2)SC1c1ccc(Cl)cc1)NN1C(=O)/C(=C\\c2ccc(O)c(O)c2)SC1c1ccc(Cl)cc1 (centres undefined)")
"> 100 µM"
>>> val("CC(=O)Nc1ccccc1Sc1ccccc1")
"> 100 µM"
>>> val("COc1cccc2c(N)c3cccc(C(=O)NCCN(C)C)c3nc12")
"3.17 µM"
>>> val("COc1cccc(-c2cc(=O)c3ccccc3o2)c1N")
"> 100 µM"
>>> val("COc1cc2c(cc1OC)C1=Cc3cc(OC)c(OC)cc3C(C)N1C=C2 (centres undefined)")
"> 100 µM"
>>> val("COc1cc(OC)cc(-c2ccc(-c3ccc(C(=N)N)o3)o2)c1")
"3.67 µM"
>>> val("Cc1ccc(S(=O)(=O)C(CC(=O)N2CCCC2)C(=O)c2ccccc2)cc1 (centres undefined)")
"> 100 µM"
>>> val("COc1ccccc1N/C(=C\\C(=O)C(=O)NC12CC3CC(CC(C3)C1)C2)c1ccccc1")
"> 10 µM"
>>> val("COC1C(CN[N+](=O)CC2OC3OC(C)(C)OC3C2OC)OC2OC(C)(C)OC21 (centres undefined)")
"> 100 µM"
>>> val("Cc1nc(-c2ccc([N+](=O)[O-])cc2)cn2c1nc1ccccc12")
"> 100 µM"
>>> val("COC(=O)C[C@H]1CCC2(OCCO2)[C@]1(C)C(=O)OC")
"> 100 µM"
>>> val("C[N+]1=C2[B-](C(C)(C)C)=[N+](C(C)(C)C)[B-]2(C(C)(C)C)[N+](C)=C2[B-](C(C)(C)C)=[N+](C(C)(C)C)[B-]21C(C)(C)C (centres undefined)")
"> 100 µM"
>>> val("COC(=O)CCCCN=Cc1c(O)c(O)c(C(C)C)c2cc(C)c(-c3c(C)cc4c(C(C)C)c(O)c(O)c(C=NCCCCC(=O)OC)c4c3O)c(O)c12")
"> 32.5 µM"
>>> val("O=c1[nH]n2c(=O)cc[nH]c2c1-c1nnns1")
"> 100 µM"
>>> val("O=c1nc(N2CCN(c3ccccc3)CC2)ccn1C1OC(CO)C(O)C1O (centres undefined)")
"> 100 µM"
>>> val("O=C(CI)NC1Oc2ccccc2-c2oc(=O)c(-c3ccccc3)cc21 (centres undefined)")
"3.31 µM"

----------
- System: RPMI-8226 leukemia
- Test Summary: NCI tumour cell line growth inhibition, 48 h
Where a SMILES comes first, the peptide text is derived from it. The star is where a group is joined. Boc = CC(C)(C)OC(=O)*
List of TGI values.
Assay Endpoint: TGI

>>> val("CCOC(=O)/C=C(/C(=O)OCC)n1cc(Cl)c(=O)n(CC(=O)OCC)c1=O")
"5.73 µM"
>>> val("CN(C)CCNc1cc(-c2ccccc2)nc2ccccc12")
"21.8 µM"
>>> val("COc1cccc(/C=N/NC(=O)c2ccccc2Nc2ccnc(C(F)(F)F)c2)c1O")
"0.983 µM"
>>> val("COC(=O)c1cc2c3ccccc3[nH]c2c2ncccc12")
"> 100 µM"
>>> val("Cc1ccc(S(=O)(=O)N(CCOc2ccc(/C(N)=N/Cl)cc2)CCOc2ccc(/C(N)=N\\Cl)cc2)cc1")
"> 100 µM"
>>> val("c1ccc(C2C3=C(Nc4ncnn42)c2ccccc2C3)cc1 (stereo not drawn)")
"> 100 µM"
>>> val("CCN1CC2=C(NC(=S)NC2c2ccc(Cl)cc2)/C(=C/c2ccc(Cl)cc2)C1 (stereo not drawn)")
"90.9 µM"
>>> val("N#C/C(=C1C=C/C(=N/O)C(Br)=C/1)c1ccccc1")
"11.5 µM"
>>> val("C[C@]12CC[C@H](O)CC1=CC[C@@H]1[C@@H]2CC[C@]2(C)C(c3cccnc3)=CC[C@@H]12")
"> 100 µM"
>>> val("COc1ccc(N2C(=O)C3c4[nH]c5ccc(OCc6ccccc6)cc5c4C4CCC(C(C)(C)C)CC4C3C2=O)cc1 (stereo not drawn)")
"> 100 µM"
>>> val("COc1ccc(C(C#N)NNC(=O)c2ccccc2O)cc1OC (stereo not drawn)")
"> 100 µM"
>>> val("CCOC(=O)NC(=O)c1cn(C2OC(COC(=O)CCCCCCCCC(=O)OCC3OC(n4cc(C(=O)NC(=O)OCC)c(=O)[nH]c4=O)C(O)C3O)C(O)C2O)c(=O)[nH]c1=O (stereo not drawn)")
"> 100 µM"
>>> val("COc1ccc(C2Oc3c(cc(O)c(OC)c3C)[C@@H]2C)cc1OC (stereo partly drawn)")
"> 100 µM"
>>> val("CCOC(=O)c1csc(NC(=O)CCN(CC)CC)n1")
"> 100 µM"
>>> val("COC(=O)CNC(=O)C(Cc1ccccc1)NC(=O)C(CCSC)NC(=O)C(Cc1ccc(O)cc1)NC(=O)OC(C)(C)C (stereo not drawn) (Boc-YMFG-OMe; configuration not given here)")
"50.2 µM"
>>> val("Cc1ccc([C@@H]2[C@@H](C(=O)c3ccccn3)[C@H](c3ccc(C)cc3)C[C@](O)(c3ccccn3)[C@H]2C(=O)c2ccccn2)cc1")
"> 92.6 µM"
>>> val("COc1ccc(/C(=C2\\O[C@@H]([C@H]3COC(C)(C)O3)[C@H]3OC(C)(C)O[C@@H]23)c2cc(OC)c(OC)c(OC)c2)cc1O")
"> 100 µM"
>>> val("COc1cc(/C=C2/C(=O)N(C(=O)c3ccccc3O)N=C2C)cc(OC)c1OC")
"> 100 µM"

----------
- Tested on: SN12C renal
- Test Summary: NCI tumour cell line growth inhibition, 48 h; in the data active = GI50 below about 0.43 µM; inactive = the rest
Outcome codes: active, inactive

>>> answer_label("O=C(c1ccco1)c1nc2ccc(C(F)(F)F)cc2[n+]([O-])c1C(F)(F)F")
"inactive"
>>> answer_label("Cc1c(C(=O)N/N=C/c2ccc(Cl)cc2)nnn1-c1ccnc2c(C(F)(F)F)cccc12")
"inactive"
>>> answer_label("COc1cccc(/C=N/NC(=O)c2ccccc2Nc2ccnc(C(F)(F)F)c2)c1O")
"inactive"
>>> answer_label("COc1cc(/C=C/c2cc(/C=C/c3ccc(O)c(OC)c3)n(-c3ccccc3)n2)ccc1O")
"active"
>>> answer_label("O=c1oc2ccc(F)cc2c(=O)n1-c1ccc(F)cc1F")
"inactive"
>>> answer_label("O=C(CN1CCOCC1)Nc1ccc(Cn2nnc3c2C(=O)c2nnn(Cc4ccc(NC(=O)CN5CCOCC5)cc4)c2C3=O)cc1")
"active"
>>> answer_label("O=C(NCCOCCOCCNc1cccc2c1C(=O)N(C1CCCNC1=O)C2=O)c1cc2c(o1)C(=O)c1ccccc1C2=O (centres undefined)")
"inactive"
>>> answer_label("COc1ccc2c(c1)c(-c1nc(-c3cn(C)c4ncccc34)cs1)cn2CCCN1CCCCC1")
"inactive"
>>> answer_label("O=C(Nc1ccc(N2CCNCC2)cc1)c1[nH]ncc1Nc1cc(Oc2ccccc2)ncn1")
"inactive"
>>> answer_label("CCc1c(Oc2ccc(C(C)=O)cc2)c2ccccc2[nH]c1=O")
"inactive"
>>> answer_label("Cc1cc(I)cc(CNCCCN2CCSCC2)c1O")
"inactive"
>>> answer_label("CC(C)CC(=O)[O-].CC(C)CC(=O)[O-].N.N.N.N.[Co+3].[O-][Cl+3]([O-])([O-])[O-]")
"inactive"
>>> answer_label("N#C/C(=C1C=C/C(=N/O)C(Br)=C/1)c1ccccc1")
"inactive"
>>> answer_label("CCCCC(=O)OCC1OC(n2cnc3c(=S)nc[nH]c32)C(OC(=O)CCCC)C1OC(=O)CCCC (centres undefined)")
"inactive"
